Study system: T1, human MSLN-FL-his protein (human, UniProt Q13421 296-580)
T1 construct: made in HEK293E cells, purified on nickel column; also called hMSLN-FL-his; human MSLN full-length protein; not shown: His tag
T1 sequence (Q13421 other isoform, or with tags, fused parts or gaps): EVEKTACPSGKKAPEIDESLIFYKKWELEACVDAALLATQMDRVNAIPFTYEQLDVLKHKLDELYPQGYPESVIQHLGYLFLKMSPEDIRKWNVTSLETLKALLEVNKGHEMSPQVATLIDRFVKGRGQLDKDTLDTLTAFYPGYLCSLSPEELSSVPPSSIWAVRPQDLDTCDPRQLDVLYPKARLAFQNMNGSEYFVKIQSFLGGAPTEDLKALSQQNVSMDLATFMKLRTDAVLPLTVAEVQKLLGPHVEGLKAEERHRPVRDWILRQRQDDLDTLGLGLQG
Assay summary: competitive ELISA; row F2.16.10; further: test concentration or dose not given here
Reported values of competition rate for individual entries
Remember to put the unit after the number in your answer.

Tab107 (YP3, hIgG1) (antibody, V domains shown, Control antibody; VH and VL recombined into human IgG1 CH and CL expression vectors; also called YP3 human IgG1 antibody) VH: QEQLVESGGGLVQPGASLTLTCTASGIDFSRYYMCWVRQAPGKGLEGIACIYIGGSGSTYYASWAKGRFTISKASSTTVTLQMTSLTAADTATYFCARGTNLNYIFRLWGPGTLVTVSS VL: DVVMTQTPSPVSAAVGGTVTIKCQASQSINNGLAWYQQKPGQPPRLLIYSASNLESGVPSRFKGSGSGTEFTLTISDLECDDAATYYCQCIWDGNSYVNAFGGGTEVVVRT = -104%

Incoming: Any idea what its competition rate is? The binder is S009-F1.56.1 (antibody, human IgG1, kappa, V domains shown, human-murine chimeric antibody, human IgG1/kappa constant regions) VH: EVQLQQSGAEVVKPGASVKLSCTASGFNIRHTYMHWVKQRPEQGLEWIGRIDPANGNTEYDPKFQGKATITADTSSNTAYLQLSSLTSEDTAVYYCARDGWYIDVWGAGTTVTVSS VL: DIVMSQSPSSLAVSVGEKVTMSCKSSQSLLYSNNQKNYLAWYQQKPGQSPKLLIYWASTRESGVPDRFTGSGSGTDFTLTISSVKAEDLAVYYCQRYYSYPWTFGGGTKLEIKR
Outgoing: -7%

Incoming: Any idea what its competition rate is? The binder is S009-F1.35.24 (antibody, human IgG1, kappa, V domains shown, human-murine chimeric antibody, human IgG1/kappa constant regions) VH: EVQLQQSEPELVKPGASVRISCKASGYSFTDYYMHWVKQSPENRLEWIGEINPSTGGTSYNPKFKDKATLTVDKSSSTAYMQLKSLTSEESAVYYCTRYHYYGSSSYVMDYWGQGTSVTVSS VL: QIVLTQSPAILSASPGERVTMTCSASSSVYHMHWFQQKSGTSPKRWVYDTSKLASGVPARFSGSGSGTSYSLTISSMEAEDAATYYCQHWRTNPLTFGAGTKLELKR
Outgoing: 31%
